Consider the following sequences and their measured shrunken log2 fold change readings.
Test system: Escherichia coli TOP10;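 further: peptides expressed intracellularly from a pBAD plasmid library in pooled LB shake-flask culture, induced with 0.3% L-arabinose, DNA abundance read by NGS, three biological replicates, DESeq2 with apeglm shrinkage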
Test: shrunken log2 fold change of peptide-encoding DNA abundance (4.5 h post-induction vs induction); higher = less antimicrobial activity (less host growth inhibition)
Conditions: time post-induction: 4.5 h; library: site-saturation at positions 5, 18, 19, 20
I'd appreciate a reply containing only the number, no unit.

The sequence "RRIRPRPPRLPRPRPRPDQSPRP" showed shrunken log2 fold change equal to 0.021

// sample "RRIRVRPPRLPRPRPRPLKRPRP" , its shrunken log2 fold change was 0.0621

Measured shrunken log2 fold change of "RRIRFRPPRLPRPRPRPYTMPRP" : -1.06

***
Entry "RRIRGRPPRLPRPRPRPRIFPRP" — recorded shrunken log2 fold change = 0.804

Field shrunken log2 fold change (entry "RRIRNRPPRLPRPRPRPAYQPRP" ) reads -0.146

Given item "RRIRIRPPRLPRPRPRPLWCPRP" , the value recorded as its shrunken log2 fold change is -0.067

Reported shrunken log2 fold change ( "RRIRRRPPRLPRPRPRPAWWPRP" ) = 1.01

Source of measurements: the supplement of paper PMC9112550
